B1: LINE1-full (parent)
chain: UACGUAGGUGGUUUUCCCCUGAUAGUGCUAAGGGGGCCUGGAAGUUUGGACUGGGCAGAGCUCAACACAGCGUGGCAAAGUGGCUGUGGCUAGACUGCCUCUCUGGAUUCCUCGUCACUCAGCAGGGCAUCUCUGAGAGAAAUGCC

Variants of: B1
Test: self-cleavage, relative activity (ratio to wild type); higher = more cleavage; in vitro, sequencing; the parent is a self-cleaving ribozyme
Output met for self-cleavage not less than 0.2; output not met otherwise.

Answered examples (5):
INSERT INTO results (sequence_content, class_assignment) VALUES
  ('UACGUAGGUGGUUUUCUCCUGAUAGUGCUAAGGGGGCCUGGAAGUUUGGACUGGGCAGAGCUCAGCACAGCGUGGCAAAGUGGCUGUGGCUAGACUGCCUCUCUGGAUUCCUCGUCACUCAGCAGGGCAUCUCUGAGAGAAAUGCC [C17U A65G]', 'not met'),
  ('UACGUAGGCGGUUUUCCCCUGAUAGUGCUAAGGGGGCCUGGAAGUUUGGACUGGGCAGAGCUCAACACAGCGUGGCAAAGUGGCUGUGGCUAGACUGCCUCUCUGGAUUCCUCGUCACACAGCAGGGCAUCUCUGAGAGAAAUGCC [U9C U119A]', 'met'),
  ('UACGUAGGUGGUUUCCCCCUGAUAGUGCUAGGGGGGCCUGGAAGUUUGGACUGGGCAGAGCUCAACACAGCGUGGCAAAGUGGCUGUGGCUAGACUGCCUCUCUGGAUUCCUCGUCACUCAGCAGGGCAUCUCUGAGAGAAAUGCC [U15C A31G]', 'met'),
  ('UACGUAGGUGGUUUUCCCCUGAUAGUGCUAAGGGGGCCUGGAAUUUUGGACUGGGCAGAGCUCAACACAGCGUGGCAAAGUGGCUGUGGCUAGACUGCCUCUCUGGAUUCCUCGUCACUCAGCAGGGCAUCUCUGAGAGAAAUGCC [G44U]', 'met'),
  ('UACGUAGGUGGUUUUCCCCAGAUAGUGCUAAGGGGGCCUGGAAGUUUGGACUGGGCAGAGCUCAACACAGCGUGGCAAAGUGGCUGUGGCUGGACUGCCUCUCUGGAUUCCUCGUCACUCAGCAGGGCAUCUCUGAGAGAAAUGCC [U20A A92G]', 'not met');

Input line: Threshold query (self-cleavage >= 0.2) on UACGUGGGUGGUUUUCCCCUGAUAGUGCUAAGGGGGCCUGGAAGUUUGGACUGGGCAGAGCUCAACACAGCGUGGCAAAGUGGCUGUGGCUAGACUGCCUCUCUGGAUUCCUCGUCACACAGCAGGGCAUCUCUGAGAGAAAUGCC [A6G U119A]
Output line: met

Input line: Dear colleague, could you confirm whether UACGUAGGUGGUUUUCCCCUGAUAGUGCUAAGGGGGCCUGGAAGUUUGGACUGGGCAGACCUCAACACAGCGUGGCAAAGUGGCUGUGGCUAGACUGCCUCUCUGGAUUCCUCGUCACUCAGCAGGGCAUCUCAGAGAGAAAUGCC [G60C U134A] has self-cleavage at or above 0.2?
Output line: not met

Input line: Is self-cleavage at least 0.2? Consider UACGUAGGUGGUUUUCCCCUGAUAGUCCUAAGGGGGCCUGGAAGUUUGGACUGGGCAGAGCUCAACCCAGCGUGGCAAAGUGGCUGUGGCUAGACUGCCUCUCUGGAUUCCUCGUCACUCAGCAGGGCAUCUCUGAGAGAAAUGCC [G27C A67C]
Output line: not met

Input line: Textbook exercise: given the entry UACGUAGGUGGUUUUCCCCUGAUAGUGCUAAGGGGGCCUGGAAGUUUGGACUGGGUAGAGCUCAACACGGCGUGGCAAAGUGGCUGUGGCUAGACUGCCUCUCUGGAUUCCUCGUCACUCAGCAGGGCAUCUCUGAGAGAAAUGCC [C56U A69G] , state whether its self-cleavage is greater than or equal to 0.2.
Output line: not met

Input line: Decide: self-cleavage of UACGUAGGUGGUUUUCCCAUGAUAGUGCUAAGGGGGCCUGGAAGUUUGGACUGGGCAGAGCUCAACACAGCGUGGCAAAGUGGCUGUGGCUAGACUGCCUCUCCGGAUUCCUCGUCACUCAGCAGGGCAUCUCUGAGAGAAAUGCC [C19A U104C] >= 0.2?
Output line: met

Input line: # check: self-cleavage of UACGUAGGUGGUUUUCCCCUGAUAGUGCUAAGGGGGCCUGGAAGUUUGGACUGGGCAGAGCUCAACACAGCGUGGCAAAGUGGCUGUGGCUAGACUGCCUCUCUGGAUUCCUCGUCACUCAGCAGGGCAUCUCUGUGUGAAAUGCC [A136U A138U] is greater than or equal to 0.2
Output line: met

Input line: Test whether the variant UACGUAGGUGGUUUUCCCCUGAUAGUGCUAAGGGGGCCUGGAAGCUUGGACUGGGCAGAGCGCAACACAGCGUGGCAAAGUGGCUGUGGCUAGACUGCCUCUCUGGAUUCCUCGUCACUCAGCAGGGCAUCUCUGAGAGAAAUGCC [U45C U62G] records self-cleavage of 0.2 or higher.
Output line: not met
